Attribution: PubChem BioAssay (EPA / NIEHS)

read-out: Lipase C (LIPC), LIPC (gene 3990); test: LTEA_HepaRG_LIPC: Life Technologies and Expression Analysis (LTEA) Assay for Lipase C (LIPC) using HepaRG (AID 2283514); details: mRNA level, 48 h; actives raise or lower the signal
The source made the active and inactive calls. How the source made its calls: active means hit-call score of the fitted dose curve at least 0.9, where 1 is the maximum; inactive means score below 0.9.
Mark one answer only. Choices: active, inactive

In: Hi team, can someone confirm the assay call for CC(C)=CCCC(C)=CC=O ?
Out: inactive

In: Hi team, can someone confirm the assay call for O=C(OC[C@H]1O[C@@H](OC(=O)c2cc(O)c(O)c(OC(=O)c3cc(O)c(O)c(O)c3)c2)[C@H](OC(=O)c2cc(O)c(O)c(OC(=O)c3cc(O)c(O)c(O)c3)c2)[C@@H](OC(=O)c2cc(O)c(O)c(OC(=O)c3cc(O)c(O)c(O)c3)c2)[C@@H]1OC(=O)c1cc(O)c(O)c(OC(=O)c2cc(O)c(O)c(O)c2)c1)c1cc(O)c(O)c(OC(=O)c2cc(O)c(O)c(O)c2)c1 ?
Out: active

In: Hi team, can someone confirm the assay call for CC(=O)OCCC(C)C ?
Out: inactive

====

assay: BSK_hDFCGF_Proliferation: Cell Proliferation Assessment in the BioMAP Diversity Plus: hDFCGF Assay (AID 2283059); details: primary human foreskin fibroblasts;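 further: curves fitted for both rise and fall of signal versus DMSO baseline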
The source made the active and inactive calls. How the source made its calls: active means hit-call score of the fitted dose curve at least 0.9, where 1 is the maximum; inactive means score below 0.9.
Mark one answer only. Choices: active, inactive

Please review the entries below; each comes with its answer.
O=C(O)CC(O)C(=O)O (stereo unspecified)	inactive
CCN(C(=O)c1cc(C)cc(OC[C@H](C)Nc2ccncc2)c1)C(C)C	inactive

In: Hi team, can someone confirm the assay call for CCOc1cccc(-n2cc(C(=O)N3CCN(c4cc(C(=O)O)c5ccccc5c4)CC3)nc2-c2ccc(C)cc2)c1 ?
Out: active

In: Hi team, can someone confirm the assay call for CC[C@H]1CC[C@H](NCc2cc3c(cc2OC)[C@H]2C[C@H]2C(=O)N3C)[C@H](c2ccccc2)N1 ?
Out: active

In: Hi team, can someone confirm the assay call for Cc1[nH]cnc1C[C@H]1CCc2c(C)c3ccccc3n2C1=O ?
Out: active

====

read-out: Monokine induced gamma interferon (MIG), CXCL9 (gene 4283); test: BSK_CASM3C_MIG: BioMAP Diversity Plus: CASM3C Assay for Monokine induced gamma interferon (MIG) Biomarker Activity (AID 2283048); settings: primary human coronary artery smooth muscle cells; actives raise or lower the signal;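 further: MIG protein level measured by ELISA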
The source made the active and inactive calls. Rule for the calls: active = hit-call score of the fitted dose curve at least 0.9, where 1 is the maximum; inactive = score below 0.9.
Mark one answer only. Choices: class 1 = active, class 0 = inactive

Please review the entries below; each comes with its answer.
Cc1c(-c2cccnc2)c2ccccc2n1CCCCC(=O)O	class 0
O=C1CCC(N2C(=O)c3ccccc3C2=O)C(=O)N1 (configuration not stated)	class 0

In: Hi team, can someone confirm the assay call for CC1=CC(=O)CC(C)(C)C1 ?
Out: class 0

In: Hi team, can someone confirm the assay call for CCc1cc(SCc2sc(-c3ccc(C(F)(F)F)cc3)nc2CN2CCN(c3ccc(OC)cc3)CC2)ccc1OCC(=O)O ?
Out: class 1

In: Hi team, can someone confirm the assay call for CC(C)=CCCC(C)=CC=O ?
Out: class 0

In: Hi team, can someone confirm the assay call for CC[C@H](C)C(=O)O[C@H]1C[C@@H](C)C=C2C=C[C@H](C)[C@H](CC[C@@H]3C[C@@H](O)CC(=O)O3)[C@H]21 ?
Out: class 0

In: Hi team, can someone confirm the assay call for O=C(NS(=O)(=O)/C=C/c1ccccc1)c1ccc(F)cc1Cl ?
Out: class 0

In: Hi team, can someone confirm the assay call for CCOC(=O)c1ccc(C2CCC(NC[C@H](O)COc3ccc(O)c(NS(C)(=O)=O)c3)CC2)cc1 (some centres not stated) ?
Out: class 0

====

read-out: Intercellular Adhesion Molecule 1 (ICAM1), ICAM1 (gene 3383); assay: BSK_3C_ICAM1: BioMAP Diversity Plus: 3C Assay for Intercellular Adhesion Molecule 1 (ICAM1) Biomarker Activity (AID 2283003); details: primary human endothelial cells (HUVEC); actives raise or lower the signal
Active and inactive are the calls of the source. The calls were made as follows: active = hit-call score of the fitted dose curve at least 0.9, where 1 is the maximum; inactive = score below 0.9.
Mark one answer only. Choices: active, inactive

Please review the entries below; each comes with its answer.
CC[C@H](C)C(=O)O[C@H]1C[C@@H](C)C=C2C=C[C@H](C)[C@H](CC[C@@H]3C[C@@H](O)CC(=O)O3)[C@H]21	active
O=C(CCCCCCCCc1cccnc1)N1CCC(C=C(c2ccccc2)c2ccccc2)CC1	active
CCn1nc(Cc2ccccc2)cc1C1CCN(C[C@H]2C[C@H](N(C)[C@@H](C(=O)O)C(C)C)C[C@@H]2c2cccc(F)c2)CC1	inactive
CC(C)=CCC/C(C)=C/CO	inactive

In: Hi team, can someone confirm the assay call for Fc1ccccc1[C@@H](F)COC1CCC(Nc2ncnc3[nH]ncc23)CC1 (stereo partly drawn) ?
Out: inactive

In: Hi team, can someone confirm the assay call for CCCCCCCCCCCCc1ccccc1 ?
Out: inactive

In: Hi team, can someone confirm the assay call for CC(C)c1cccc(C(C)C)c1N1C(=O)c2ccc(O)cc2C1=O ?
Out: inactive

In: Hi team, can someone confirm the assay call for O=C(O)CCN(C1(C(=O)NO)CCCC1)S(=O)(=O)c1ccc(Oc2ccc(F)cc2)cc1 ?
Out: inactive

In: Hi team, can someone confirm the assay call for Nc1ccc(Nc2ccccc2)cc1 ?
Out: inactive

====

experiment: ATG_NFI_CIS: Attagene CIS-FACTORIAL HepG2 Assay for human Nuclear Factor I (NFI) (AID 2282989); settings: HepG2 cis-regulatory reporter, NFI response element transcription; actives raise or lower the signal
Activity calls are given as the source filed them. The calls were made as follows: active = hit-call score of the fitted dose curve at least 0.9, where 1 is the maximum; inactive = score below 0.9.
measurement-kind: AC50

Illustrative cases are given below, each with its answer.
CCOC(=O)CC(CC(=O)OCC)(OC(C)=O)C(=O)OCC	inactive
O=c1[nH]c2ccc(S(=O)CCN3CCC(Cc4ccc(F)cc4)CC3)cc2o1 (stereo unspecified)	100 µM (active)
COCCOCCOCCOC	inactive
CCN(C(=O)c1cc(C)cc(OC[C@H](C)Nc2ccncc2)c1)C(C)C	inactive
O=C(O)CC(O)C(=O)O (stereo unspecified)	inactive

In: Fill in the blank: the reported AC50 of CCCCCCCCO is ____.
Out: inactive

====

target: human Adenosine Transporter (Adot), SLC29A1 (gene 2030); assay: NVS_TR_hAdoT: NovaScreen (NVS) Transporter Assay for human Adenosine Transporter (Adot) (AID 2283368)
Inconclusive results are not listed. Activity calls are given as the source filed them. The calls were made as follows: active = hit-call score of the fitted dose curve at least 0.9, where 1 is the maximum; inconclusive = response in the unintended direction; inactive = score below 0.9.
Mark one answer only. Choices: t for active, f for inactive

In: Hi team, can someone confirm the assay call for CCCCCCc1ccc(O)cc1O ?
Out: f

In: Hi team, can someone confirm the assay call for Cc1ccc(N)cc1O ?
Out: f

In: Hi team, can someone confirm the assay call for Fc1ccccc1[C@@H](F)COC1CCC(Nc2ncnc3[nH]ncc23)CC1 (stereo not given in full) ?
Out: t

In: Hi team, can someone confirm the assay call for CCC(C)(C)C(=O)O[C@H]1C[C@@H](C)C=C2C=C[C@H](C)[C@H](CC[C@@H]3C[C@@H](O)CC(=O)O3)[C@H]21 ?
Out: t

In: Hi team, can someone confirm the assay call for CCOc1cccc(-n2cc(C(=O)N3CCN(c4cc(C(=O)O)c5ccccc5c4)CC3)nc2-c2ccc(C)cc2)c1 ?
Out: t

====

Target: Transcription factor E2F1 (Homo sapiens) (UniProt Q01094)
Sequence (Q01094 whole entry, looked up): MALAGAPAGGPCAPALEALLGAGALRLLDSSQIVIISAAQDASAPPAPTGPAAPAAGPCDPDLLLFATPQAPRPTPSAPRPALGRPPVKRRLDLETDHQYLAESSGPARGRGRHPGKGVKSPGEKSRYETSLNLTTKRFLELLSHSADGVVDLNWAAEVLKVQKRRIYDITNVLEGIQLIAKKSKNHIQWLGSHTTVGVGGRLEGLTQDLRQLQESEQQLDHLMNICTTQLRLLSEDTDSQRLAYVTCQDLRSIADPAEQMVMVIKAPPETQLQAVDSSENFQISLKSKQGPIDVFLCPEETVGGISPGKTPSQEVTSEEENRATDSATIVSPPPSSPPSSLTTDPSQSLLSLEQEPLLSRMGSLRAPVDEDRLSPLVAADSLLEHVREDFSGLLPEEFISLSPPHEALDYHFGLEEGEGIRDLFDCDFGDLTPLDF
Test: ATG_E2F_CIS: Attagene CIS-FACTORIAL HepG2 Assay for human E2F Transcription Factor 1 (AID 2282935)
Settings: HepG2 Attagene cis-reporter, E2F reporter RNA transcripts; actives raise or lower the signal
Method: ATG_CIS is a cell-based, multiplexed-readout assay that uses HepG2, a human liver cell line, with measurements taken at 24 hours after chemical dosing in a 24-well plate.ATG_E2F_CIS is one of 52 assay component(s) measured or calculated from the ATG_CIS assay. […] This assay endpoint, ATG_E2F_CIS, was analyzed with bidirectional fitting relative to DMSO as the negative control and baseline of activity. […]
Activity calls are given as the source filed them. How the source made its calls: active means hit-call score of the fitted dose curve at least 0.9, where 1 is the maximum; inactive means score below 0.9.
measurement-kind: outcome

CCCN(C1CCN(C(=O)C2CCNCC2)CC1)[C@@H]1CCc2ccc(OC)cc2C1	inactive
O=C(OC[C@H]1O[C@@H](OC(=O)c2cc(O)c(O)c(OC(=O)c3cc(O)c(O)c(O)c3)c2)[C@H](OC(=O)c2cc(O)c(O)c(OC(=O)c3cc(O)c(O)c(O)c3)c2)[C@@H](OC(=O)c2cc(O)c(O)c(OC(=O)c3cc(O)c(O)c(O)c3)c2)[C@@H]1OC(=O)c1cc(O)c(O)c(OC(=O)c2cc(O)c(O)c(O)c2)c1)c1cc(O)c(O)c(OC(=O)c2cc(O)c(O)c(O)c2)c1	inactive

====

read-out: Thyroid Hormone Responsive (THRSP), THRSP (gene 7069); test: LTEA_HepaRG_THRSP: Life Technologies and Expression Analysis (LTEA) Assay for Thyroid Hormone Responsive (THRSP) using HepaRG (AID 2283536); conditions: mRNA level, 48 h; actives raise or lower the signal
Active and inactive are the calls of the source. Rule for the calls: active = hit-call score of the fitted dose curve at least 0.9, where 1 is the maximum; inactive = score below 0.9.
Mark one answer only. Choices: T = active, F = inactive

O=C(O)c1cccc(Oc2ccccc2)c1	F

Continue with the next compound.
In: Hi team, can someone confirm the assay call for O=c1n(CC2CO2)c(=O)n(CC2CO2)c(=O)n1CC1CO1 (stereo not drawn) ?
Out: F
